Quick record of AC50 values for Growth hormone secretagogue receptor type 1 (Homo sapiens, UniProt Q92847).

Use the examples below as a reference point.
{"columns": ["compound", "tested on", "AC50"],
 "data": [
  ["CN1CC[C@]23CCCC[C@H]2[C@H]1Cc1ccc(O)cc13", "Growth hormone secretagogue receptor type 1 (Homo sapiens, UniProt Q92847)", "> 10 µM"],
  ["CC(N)Cc1ccccc1 (stereo unspecified)", "Growth hormone secretagogue receptor type 1 (Homo sapiens, UniProt Q92847)", "> 30 µM"],
  ["CCCCCCCCOc1ccccc1C(=O)Nc1ccc(C(=O)OCC[N+](C)(CC)CC)cc1 [OTILONIUM BROMIDE]", "Growth hormone secretagogue receptor type 1 (Homo sapiens, UniProt Q92847)", "7.6 µM"],
  ["CC(C)Cc1ccc(CC(=O)O)cc1", "Growth hormone secretagogue receptor type 1 (Homo sapiens, UniProt Q92847)", "> 30 µM"],
  ["O=C(O)CCn1c2c(c3ccccc31)C[C@H](NS(=O)(=O)c1ccc(F)cc1)CC2", "Growth hormone secretagogue receptor type 1 (Homo sapiens, UniProt Q92847)", "> 30 µM"]
]}

// next item, AC50 requested
In: GET AC50 | system: Growth hormone secretagogue receptor type 1 (Homo sapiens, UniProt Q92847) | item: CC(=O)OCC(=O)[C@@]12OC3(CCCC3)O[C@@H]1C[C@H]1[C@@H]3CCC4=CC(=O)C=C[C@]4(C)[C@@]3(F)[C@@H](O)C[C@@]12C [AMCINONIDE]; also: assay procedure not described here
Out: > 10 µM

* * *

tested on: Prostaglandin G/H synthase 1 (Homo sapiens, UniProt P23219); also: assay procedure not described here
Sequence (P23219 whole entry): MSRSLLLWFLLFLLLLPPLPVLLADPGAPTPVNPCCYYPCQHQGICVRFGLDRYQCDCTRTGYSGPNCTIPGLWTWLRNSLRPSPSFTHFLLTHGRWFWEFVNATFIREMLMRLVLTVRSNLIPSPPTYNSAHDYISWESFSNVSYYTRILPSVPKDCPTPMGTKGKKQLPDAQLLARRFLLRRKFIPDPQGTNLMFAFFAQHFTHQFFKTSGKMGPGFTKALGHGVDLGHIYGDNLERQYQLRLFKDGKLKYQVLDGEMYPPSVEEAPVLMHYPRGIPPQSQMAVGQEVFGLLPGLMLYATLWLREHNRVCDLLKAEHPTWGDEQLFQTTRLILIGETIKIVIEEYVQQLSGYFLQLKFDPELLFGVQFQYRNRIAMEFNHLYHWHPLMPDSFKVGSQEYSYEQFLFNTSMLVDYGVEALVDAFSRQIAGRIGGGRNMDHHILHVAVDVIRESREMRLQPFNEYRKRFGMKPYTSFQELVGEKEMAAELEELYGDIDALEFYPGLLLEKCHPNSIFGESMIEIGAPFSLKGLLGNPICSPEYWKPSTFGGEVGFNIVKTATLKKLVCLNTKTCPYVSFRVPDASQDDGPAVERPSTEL
Format: functional
observed property: AC50

// below: answered compounds
{"columns": ["compound", "recorded value"],
 "data": [
  ["O=C(NC1CCN(CCCCC2(C(=O)NCC(F)(F)F)c3ccccc3-c3ccccc32)CC1)c1ccccc1-c1ccc(C(F)(F)F)cc1 [LOMITAPIDE]", "> 30 µM"],
  ["O=C1c2c(O)c(=O)ccn2N([C@@H]2c3ccccc3SCc3c2ccc(F)c3F)[C@@H]2COCCN12", "> 30 µM"],
  ["O=C1CN=C(c2ccccc2)c2c(sc3c2CCCC3)N1", "> 1 µM"]
]}

Please look at the following compound next.
In: GET AC50 | system: Prostaglandin G/H synthase 1 (Homo sapiens, UniProt P23219) | item: Nc1nc(-n2cc(C(=O)O)c(=O)c3cc(F)c(N4CC(O)C4)c(Cl)c32)c(F)cc1F; also: assay procedure not described here
Out: > 30 µM

* * *

List of AC50 tested on Adenosine receptor A2a (Homo sapiens). Also: assay procedure not described here.
Sequence (P29274 whole entry): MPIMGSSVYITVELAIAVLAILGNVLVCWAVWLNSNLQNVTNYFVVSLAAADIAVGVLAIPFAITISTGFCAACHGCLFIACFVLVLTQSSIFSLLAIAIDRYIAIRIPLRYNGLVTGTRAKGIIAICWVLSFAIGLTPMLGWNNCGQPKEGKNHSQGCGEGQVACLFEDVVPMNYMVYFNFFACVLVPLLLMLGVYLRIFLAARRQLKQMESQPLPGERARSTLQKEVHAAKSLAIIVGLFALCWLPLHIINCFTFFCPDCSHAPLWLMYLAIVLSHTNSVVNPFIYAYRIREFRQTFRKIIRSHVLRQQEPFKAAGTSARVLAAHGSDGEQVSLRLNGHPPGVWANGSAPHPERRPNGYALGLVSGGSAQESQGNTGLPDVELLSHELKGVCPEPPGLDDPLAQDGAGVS

Worked examples, 10 molecules total:
{"columns": ["molecule", "observed property", "recorded value"],
 "data": [
  ["COc1c(N2CCNC(C)C2)c(F)cc2c(=O)c(C(=O)O)cn(C3CC3)c12 (configuration not stated)", "AC50", "> 10 µM"],
  ["OCCN1CCN(CCCN2c3ccccc3C=Cc3ccccc32)CC1", "AC50", "> 30 µM"],
  ["CC(C(O)c1ccc(O)cc1)N1CCC(Cc2ccccc2)CC1 (configuration not stated)", "AC50", "> 30 µM"],
  ["O=C(Cn1ccnc1[N+](=O)[O-])NCc1ccccc1", "AC50", "> 30 µM"],
  ["CCCCN1CCCCC1C(=O)Nc1c(C)cccc1C (configuration not stated)", "AC50", "> 30 µM"],
  ["O=C(CCCCC(=O)Nc1c(I)cc(I)c(C(=O)O)c1I)Nc1c(I)cc(I)c(C(=O)O)c1I [IODIPAMIDE]", "AC50", "> 10 µM"],
  ["CC(N)Cc1ccccc1 (configuration not stated)", "AC50", "11 µM"],
  ["COC(=O)N[C@H](C(=O)N[C@@H](Cc1ccccc1)[C@@H](O)CN(Cc1ccc(-c2ccccn2)cc1)NC(=O)[C@@H](NC(=O)OC)C(C)(C)C)C(C)(C)C", "AC50", "> 30 µM"],
  ["CC(=O)O[C@@]12CO[C@@H]1C[C@H](O)[C@@]1(C)C(=O)[C@H](O)C3=C(C)[C@@H](OC(=O)[C@H](O)[C@@H](NC(=O)OC(C)(C)C)c4ccccc4)C[C@@](O)([C@@H](OC(=O)c4ccccc4)[C@H]21)C3(C)C [DOCETAXEL ANHYDROUS]", "AC50", "> 30 µM"],
  ["CCOC(=O)[C@H](CCc1ccccc1)N[C@@H](C)C(=O)N1CCC[C@H]1C(=O)O", "AC50", "> 30 µM"]
]}

In: Answer with the recorded AC50 for the molecule listed here: O=C(O)c1cc(-c2ccc(F)cc2F)ccc1O
Out: > 10 µM

In: Identify measured AC50 associated with CCC(C(=O)O)c1ccc(CC(C)C)cc1 (configuration not stated)
Out: > 30 µM

In: Look up and report measured AC50 for this entry: NS(=O)(=O)c1cc(Cl)c(Cl)c(S(N)(=O)=O)c1 [DICHLORPHENAMIDE]
Out: > 10 µM

In: Let me know recorded AC50 for O=C(Nc1ccccc1)OCC(CN1CCCCC1)OC(=O)Nc1ccccc1 (configuration not stated) , thanks.
Out: > 30 µM

In: Supply measured AC50 of O=C1CCC(N2C(=O)c3ccccc3C2=O)C(=O)N1 (configuration not stated) [THALIDOMIDE] in your reply.
Out: > 30 µM

In: Give AC50 for the following molecule: CC(C)c1c(C(=O)Nc2ccccc2)c(-c2ccccc2)c(-c2ccc(F)cc2)n1CC[C@@H](O)C[C@@H](O)CC(=O)O
Out: > 30 µM

In: Answer with the recorded AC50 of CN1CC(=O)N2[C@H](c3ccc4c(c3)OCO4)c3[nH]c4ccccc4c3C[C@@H]2C1=O only.
Out: > 30 µM

All figures here come from ChEMBL document CHEMBL5291721.
